Tested on: NCI-H2122
Test: Cell growth inhibition by CellTiter-Glo assay, NCI-H2122
Type: cell-based
Conditions: Homo sapiens, Compound B alone, 48 hours
observed property: IC50

Reported IC50 for NCI-H2122, given CCN1CCN(Cc2ccc(Nc3ncc(F)c(-c4cc(F)c5nc(C)n(C(C)C)c5c4)n3)nc2)CC1 [Compound B, reference compound] ?
450 nM
